# Experimental system: T1, human CD22-ECD-His protein (human, UniProt P20273 20-687)
# T1 construct: Made in house in HEK293E; also called hCD22-ECD-His; recombinant human CD22-ECD His protein; not shown: His tag
# T1 sequence: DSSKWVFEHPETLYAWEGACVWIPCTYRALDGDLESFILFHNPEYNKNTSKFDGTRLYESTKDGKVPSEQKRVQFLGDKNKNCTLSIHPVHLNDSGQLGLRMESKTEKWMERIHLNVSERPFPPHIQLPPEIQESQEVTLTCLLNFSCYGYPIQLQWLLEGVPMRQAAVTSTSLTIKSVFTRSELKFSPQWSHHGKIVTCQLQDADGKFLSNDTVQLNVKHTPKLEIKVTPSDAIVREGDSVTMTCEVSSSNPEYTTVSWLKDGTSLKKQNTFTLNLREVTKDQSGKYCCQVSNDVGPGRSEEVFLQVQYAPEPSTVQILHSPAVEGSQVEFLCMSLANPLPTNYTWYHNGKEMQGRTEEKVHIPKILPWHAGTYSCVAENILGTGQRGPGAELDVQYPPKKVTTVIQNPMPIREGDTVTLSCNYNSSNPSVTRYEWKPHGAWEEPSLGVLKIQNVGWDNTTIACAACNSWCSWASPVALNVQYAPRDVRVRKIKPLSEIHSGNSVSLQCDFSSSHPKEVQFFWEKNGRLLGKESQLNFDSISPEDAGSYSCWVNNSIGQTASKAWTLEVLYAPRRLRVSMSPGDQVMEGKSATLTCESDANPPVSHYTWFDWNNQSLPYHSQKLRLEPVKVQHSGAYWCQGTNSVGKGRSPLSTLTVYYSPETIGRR
# Test: ELISA, Ab 10.00 nM
Mark each entry Met if its OD450 sits below 2 OD450, and Not met for all others.

Example entries and their recorded answers appear below.
F2.121.9 (antibody, human IgG1, lambda, V domains shown, Human-murine chimeric IgG1, lambda) VH: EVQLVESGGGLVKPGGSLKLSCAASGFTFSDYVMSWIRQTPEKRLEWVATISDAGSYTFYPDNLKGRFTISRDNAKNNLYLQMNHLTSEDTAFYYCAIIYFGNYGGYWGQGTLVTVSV VL: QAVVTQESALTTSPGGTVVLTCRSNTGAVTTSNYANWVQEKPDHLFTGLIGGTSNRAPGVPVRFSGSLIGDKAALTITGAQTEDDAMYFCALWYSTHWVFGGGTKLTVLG    Met
F1.224.1 (antibody, human IgG1, kappa, V domains shown, Human-murine chimeric IgG1, kappa) VH: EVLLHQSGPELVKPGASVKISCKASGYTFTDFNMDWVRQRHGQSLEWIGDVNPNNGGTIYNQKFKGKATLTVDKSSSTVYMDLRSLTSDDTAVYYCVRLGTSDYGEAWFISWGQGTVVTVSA VL: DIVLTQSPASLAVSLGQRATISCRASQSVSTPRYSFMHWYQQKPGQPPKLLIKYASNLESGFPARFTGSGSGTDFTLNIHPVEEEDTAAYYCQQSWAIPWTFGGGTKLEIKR    Not met

Is OD450 of HA22-hIgG1 (antibody, V domains shown) VH: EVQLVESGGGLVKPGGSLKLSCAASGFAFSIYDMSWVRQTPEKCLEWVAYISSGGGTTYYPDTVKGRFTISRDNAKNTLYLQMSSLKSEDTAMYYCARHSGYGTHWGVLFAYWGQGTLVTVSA VL: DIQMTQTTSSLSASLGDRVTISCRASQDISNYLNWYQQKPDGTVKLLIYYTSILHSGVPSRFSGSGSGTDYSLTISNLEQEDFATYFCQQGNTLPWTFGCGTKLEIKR strictly below 2 OD450?
Not met

Now consider F1.216.2 (antibody, human IgG1, kappa, V domains shown, Human-murine chimeric IgG1, kappa) VH: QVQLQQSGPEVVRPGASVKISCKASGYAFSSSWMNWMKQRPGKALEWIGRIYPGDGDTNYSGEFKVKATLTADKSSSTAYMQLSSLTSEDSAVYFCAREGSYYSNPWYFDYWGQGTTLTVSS VL: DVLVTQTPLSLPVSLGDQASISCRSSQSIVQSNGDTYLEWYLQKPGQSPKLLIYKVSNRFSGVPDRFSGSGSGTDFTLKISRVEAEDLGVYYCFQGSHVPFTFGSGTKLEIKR .
Not met
